Data origin, for the record: patent US20220401439A1

- ASSAY_REMARKS: clinical
- CONDITION_DETAILS: human, in vivo, inhaled or intranasal, 1 mg, t1/2 el (h) Median
OBSERVATION_TYPE: half-life (h)

molecule="Cc1cc(C[C@@H](NC(=O)N2CCC(c3cc4ccccc4[nH]c3=O)CC2)C(=O)N2CCN(C3CCN(C)CC3)CC2)cc2cn[nH]c12 [Zavegepant]" observation_type=half-life reported_value=1.64

* * *

- ASSAY_REMARKS: Phase 1 multiple ascending dose (MAD) study, intranasal, pharmacokinetics
- Parameters: species or system human
- CONDITION_DETAILS: human, in vivo, inhaled or intranasal, 20 mg
OBSERVATION_TYPE: AUC

smiles_string=Cc1cc(C[C@@H](NC(=O)N2CCC(c3cc4ccccc4[nH]c3=O)CC2)C(=O)N2CCN(C3CCN(C)CC3)CC2)cc2cn[nH]c12 reported_value="91 ng·h/mL"

* * *

- ASSAY_REMARKS: Phase 1 multiple ascending dose (MAD) study, intranasal, pharmacokinetics
- Design: species or system human
- CONDITION_DETAILS: human, in vivo, inhaled or intranasal, 10 mg
OBSERVATION_TYPE: AUC (µg·h/mL)

smiles_string=Cc1cc(C[C@@H](NC(=O)N2CCC(c3cc4ccccc4[nH]c3=O)CC2)C(=O)N2CCN(C3CCN(C)CC3)CC2)cc2cn[nH]c12 units_symbol=µg·h/mL reported_value=0.0329

* * *

- ASSAY_REMARKS: clinical
- CONDITION_DETAILS: human, in vivo, inhaled or intranasal, 10 mg, AUC[0-t] (ng · h/mL) GM
OBSERVATION_TYPE: AUC(0-t)

smiles_string=Cc1cc(C[C@@H](NC(=O)N2CCC(c3cc4ccccc4[nH]c3=O)CC2)C(=O)N2CCN(C3CCN(C)CC3)CC2)cc2cn[nH]c12 reported_value="26.2 ng·h/mL"

* * *

- ASSAY_REMARKS: Phase 1 multiple ascending dose (MAD) study, intranasal, pharmacokinetics
- Design: species or system human
- CONDITION_DETAILS: human, in vivo, inhaled or intranasal; 20 mg once daily intranasal (Cohort 3), Day 14; read-out: T1/2 el (h) Mean (converted)
OBSERVATION_TYPE: half-life (h)

smiles_string=Cc1cc(C[C@@H](NC(=O)N2CCC(c3cc4ccccc4[nH]c3=O)CC2)C(=O)N2CCN(C3CCN(C)CC3)CC2)cc2cn[nH]c12 units_symbol=h reported_value=4.93

* * *

- ASSAY_REMARKS: clinical
- CONDITION_DETAILS: human, in vivo, median t1/2, range across doses
OBSERVATION_TYPE: half-life

smiles_string=Cc1cc(C[C@@H](NC(=O)N2CCC(c3cc4ccccc4[nH]c3=O)CC2)C(=O)N2CCN(C3CCN(C)CC3)CC2)cc2cn[nH]c12 observation_type=half-life reported_value="1.6 to 4.7 h"

* * *

- ASSAY_REMARKS: Phase 1 multiple ascending dose (MAD) study, intranasal, pharmacokinetics
- Set-up: species or system human
- CONDITION_DETAILS: human, in vivo, inhaled or intranasal, 20 mg, AUC0-t (ng*h/mL) geometric mean
OBSERVATION_TYPE: AUC(0-t)

compound="Cc1cc(C[C@@H](NC(=O)N2CCC(c3cc4ccccc4[nH]c3=O)CC2)C(=O)N2CCN(C3CCN(C)CC3)CC2)cc2cn[nH]c12 [Zavegepant]" observation_type=AUC(0-t) reported_value="87.9 ng·h/mL"
